Test: Apparent bioavailability in dogs at 15 mg/kg in an iv vs po dosing regimen
Format: ADME, organism-based, Canis lupus familiaris
Conditions: dog, in vivo
Value Type: bioavailability (%)
The reply should contain only the number, in %.

Given the molecule Cl.Nc1nc(O)c2[nH]c(N)c(Cc3ccsc3)c2n1 , write its reported bioavailability.
69

----------
Assay: Compound was tested for the cytotoxic activity against MGL-8(B-cell) lymphoblasts
Details: Homo sapiens, MGL8
pIC50: −log10 of the molar value.
Value Type: pIC50

Supply reported pIC50 belonging to this compound: Cl.Nc1nc(O)c2[nH]c(N)c(Cc3ccsc3)c2n1
< 4.30

----------
Test: Partition coefficient in octanol/water system was determined at pH 7.4, as a measure of lipophilicity.
Assay type: physicochemical
Labelling field: enter Condition met if recorded logD is less than 0.7. Enter Condition not met if it equals or exceeds that cut-off.

API: query returns whether the compound falls strictly under 0.7 in logD. Query: Cl.Nc1nc(O)c2[nH]c(N)c(Cc3ccccc3)c2n1
Condition met

Strictly below 0.7 in logD? Cl.Nc1nc(O)c2nc(N)n(Cc3cccs3)c2n1
Condition met

Please let me know if Nc1nc(O)c2nc(N)n(Cc3ccccc3)c2n1 shows logD below 0.7.
Condition met

Is 0.7 strictly greater than the compound's reported logD? compound: Cl.Nc1nc(O)c2[nH]c(N)c(Cc3ccsc3)c2n1
Condition not met

logD strictly < 0.7 for this compound? Cl.Nc1nc(O)c2[nH]c(N)c(Cc3cccs3)c2n1
Condition not met

Consider the compound Cl.Nc1nc(O)c2nc(N)n(Cc3ccsc3)c2n1 . Is its logD strictly less than 0.7?
Condition met

----------
Assay: Solubility in water
Assay type: physicochemical
Settings: read-out: S
For each entry below, report its solubility value.
# number only, unit µg/mL dropped from output

Tell us which solubility value is on record for Cl.Nc1nc(O)c2[nH]c(N)c(Cc3ccsc3)c2n1
800

Give a short answer stating reported solubility for Cl.Nc1nc(O)c2[nH]c(N)c(Cc3ccccc3)c2n1 .
600

Fill in solubility for record Cl.Nc1nc(O)c2nc(N)n(Cc3cccs3)c2n1
34

Please report the measured solubility for Cl.Nc1nc(O)c2[nH]c(N)c(Cc3cccs3)c2n1
300
